# TARGET_DESC: T1, SARS-CoV-2 receptor binding domain (RBD), wild type, His-tagged (SARS-CoV-2, UniProt P0DTC2 319-541)
# T1 construct: domain: RBD; also called His-tagged RBD; BEI NR52309
# PROTOCOL_TEXT: method and format not given
MEASURE: Kd (nM)
Reply with just the number (in nM).

Name the recorded Kd for mAb 64 (antibody, V domains shown, also called IgG 64; Antibody 64) VH: EVQLLESGGGLVQPGGSLRLSCAASGFPFSQHGMHWVRQAPGKGLEWVSAIDRSGSYIYYADSVKGRFTISRDNSKNTLYLQMNSLRAEDTAVYYCARDTYGGKVTYFDYWGQGTLVTVSS VL: DIQMTQSPSSLSASVGDRVTITCRASQGISSHLAWYQQKPGKAPKLLIYDASNLETGVPSRFSGSGSGTDFTLTISSLQPEDFATYYCQQTYSTPWTFGQGTKVEIKR .
97

meta.source: patent US20250002564A1
